Experiment: Elimination half life in rat administered via gavage by HPLC-MS/MS method
Assay type: ADME, organism-based
Conditions: in vivo, po, read-out: beta t1/2 (converted)
For each of the compounds below, state its half-life.

Exercise: Please report the recorded half-life for CCOC(=O)Nc1ccc2c(c1)CN1C(=S)N(c3ccc(C#N)c(C(F)(F)F)c3)C(=O)C1C2 (centres undefined) .
Solution: 34.4 h

Exercise: For N#Cc1ccc(N2C(=O)C3Cc4ccccc4N3C2=S)cc1C(F)(F)F (centres undefined) then?
Solution: 10.4 h

Exercise: Let us now turn to N#Cc1ccc(N2C(=O)C3Cc4ccccc4CN3C2=S)cc1C(F)(F)F (centres undefined)
Solution: 5.13 h

Exercise: Continue with CCOC(=O)Nc1cc2c(cc1F)CC1C(=O)N(c3ccc(C#N)c(C(F)(F)F)c3)C(=S)N1C2 (centres undefined)
Solution: 24.7 h

---

Assay: Cmax in rat administered via gavage by HPLC-MS/MS method
Assay type: ADME, organism-based
Details: in vivo, po
Please go through the items and note down their Cmax.
The answer is to be given in ng/mL; state only the numeric part.

Exercise: Recorded Cmax of N#Cc1ccc(N2C(=O)C3Cc4ccccc4CN3C2=S)cc1C(F)(F)F (centres undefined) , please.
Solution: 387

Exercise: Then this molecule: CCOC(=O)Nc1ccc2c(c1)CN1C(=S)N(c3ccc(C#N)c(C(F)(F)F)c3)C(=O)C1C2 (centres undefined)
Solution: 641

Exercise: Try CCOC(=O)Nc1cc2c(cc1F)CC1C(=O)N(c3ccc(C#N)c(C(F)(F)F)c3)C(=S)N1C2 (centres undefined) next.
Solution: 2290

Exercise: Here is the next molecule: N#Cc1ccc(N2C(=O)C3Cc4ccccc4N3C2=S)cc1C(F)(F)F (centres undefined)
Solution: 452

---

Hi there, I'd appreciate the recorded Tmax for every entry that follows.
Experiment: Tmax in rat administered via gavage by HPLC-MS/MS method
Type: ADME, organism-based
Conditions: in vivo, po
Unit h implied. Number only.

Exercise: Suppose we examine the molecule N#Cc1ccc(N2C(=O)C3Cc4ccccc4CN3C2=S)cc1C(F)(F)F (centres undefined) ; what Tmax value has been reported?
Solution: 2

Exercise: Moving on to the next molecule: CCOC(=O)Nc1cc2c(cc1F)CC1C(=O)N(c3ccc(C#N)c(C(F)(F)F)c3)C(=S)N1C2 (centres undefined)
Solution: 4

Exercise: Now the same for CCOC(=O)Nc1ccc2c(c1)CN1C(=S)N(c3ccc(C#N)c(C(F)(F)F)c3)C(=O)C1C2 (centres undefined)
Solution: 2

Exercise: Follow-up entry: N#Cc1ccc(N2C(=O)C3Cc4ccccc4N3C2=S)cc1C(F)(F)F (centres undefined)
Solution: 2

---

Target: Androgen receptor (Homo sapiens)
Settings: at 10 µM
Description: Antagonist activity at androgen receptor (unknown origin) expressed in African green monkey COS7 cells assessed as inhibition of R1881-induced protein activation at 10 uM after 24 hrs by luciferase reporter gene assay relative to control
Activity calls are given as the source filed them. The calls are words filed in the database; no cut-off is given here.
measured_attribute: inhibition

Some solved entries appear below for comparison.
CCOC(=O)Nc1ccc2c(c1)CN1C(=S)N(c3ccc(C#N)c(C(F)(F)F)c3)C(=O)C1C2 (stereo unspecified) : 45.4%
N#Cc1ccc(N2C(=O)C3Cc4ccc([N+](=O)[O-])cc4CN3C2=S)cc1C(F)(F)F (stereo unspecified) : 59.8%
N#Cc1ccc(N2C(=O)C3Cc4cc(N)ccc4CN3C2=S)cc1C(F)(F)F (stereo unspecified) : 14.2%
COc1c(Br)cc2c(c1Br)CN1C(=S)N(c3ccc(C#N)c(C(F)(F)F)c3)C(=O)C1C2 (stereo unspecified) : 4.6%
N#Cc1ccc(N2C(=O)C3Cc4ccc(O)cc4CN3C2=S)cc1C(F)(F)F (stereo unspecified) : 85.7%

Exercise: Could you tell me which inhibition is on file for N#Cc1ccc(N2C(=O)C3Cc4ccccc4CN3C2=S)cc1F (stereo unspecified) ?
Solution: inactive

Exercise: Try this molecule next: CCCCS(=O)(=O)Nc1ccc2c(c1)CN1C(=S)N(c3ccc(C#N)c(C(F)(F)F)c3)C(=O)C1C2 (stereo unspecified)
Solution: 29.5%

Exercise: # repeat for CS(=O)(=O)Nc1ccc2c(c1)CN1C(=S)N(c3ccc(C#N)c(C(F)(F)F)c3)C(=O)C1C2 (stereo unspecified)
Solution: 13.6%

Exercise: Then N#Cc1ccc(N2C(=O)C3Cc4cc(Br)c(O)c(Br)c4CN3C2=S)cc1C(F)(F)F (stereo unspecified) ?
Solution: 6.1%

Exercise: Can you check CCOC(=O)CCCOc1c(Br)cc2c(c1Br)CN1C(=S)N(c3ccc(C#N)c(C(F)(F)F)c3)C(=O)C1C2 (stereo unspecified) next?
Solution: inactive

Exercise: Now consider CCCOc1ccc2c(c1)CN1C(=S)N(c3ccc(C#N)c(C(F)(F)F)c3)C(=O)C1C2 (stereo unspecified) and answer again.
Solution: 54%
